Source: paper PMC11373361

biological target: WWP1-L34H (Homo sapiens, UniProt Q9H0M0); construct: WWP1- 2,3-linker-WW3-WW4-HECT (WWP1-L34H); made in house; host or cells: E. coli BL21-CodonPlus RP (plasmid pET32a-WWP1-L34H, gifted by Dr Wenyu Wen); test: WWP1 ELISA autoubiquitination assay; format: biochemical; details: sample used directly from the NCI library; dose range 500 µM - 5 nM
Sequence (Q9H0M0 415-922, stated change not applied): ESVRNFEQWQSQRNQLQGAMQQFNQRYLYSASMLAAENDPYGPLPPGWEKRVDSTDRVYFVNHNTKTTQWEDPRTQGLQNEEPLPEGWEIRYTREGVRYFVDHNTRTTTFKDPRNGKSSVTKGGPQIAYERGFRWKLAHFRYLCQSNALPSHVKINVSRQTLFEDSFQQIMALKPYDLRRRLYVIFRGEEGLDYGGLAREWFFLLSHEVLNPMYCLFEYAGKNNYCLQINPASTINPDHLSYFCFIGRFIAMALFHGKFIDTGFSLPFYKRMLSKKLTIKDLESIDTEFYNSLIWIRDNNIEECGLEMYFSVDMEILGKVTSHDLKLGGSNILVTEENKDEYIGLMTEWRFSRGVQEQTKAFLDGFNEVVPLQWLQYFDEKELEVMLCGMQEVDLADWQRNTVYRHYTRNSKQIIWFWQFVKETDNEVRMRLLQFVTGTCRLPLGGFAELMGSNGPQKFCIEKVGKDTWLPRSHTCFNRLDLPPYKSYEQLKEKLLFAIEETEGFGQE
observation.type: IC50 (µM)

1: O=C(/C=C/c1ccccc1Cl)c1ccc(O)cc1
2: CCOC(=O)CSc1nc2nc(Cl)c(Cl)nc2[nH]1
Hi team, can someone confirm which has the larger IC50: 1 or 2 ? Thanks. Pick one; state its label.
1
(1: 397 µM, 2: 33.3 µM)

====

Molecular target: WWP2-FL (Homo sapiens, UniProt O00308)
Construct: full-length WWP2 (WWP2-FL); made in house; host or cells: E. coli BL21-CodonPlus RP (plasmid pGEX2T-WWP2-FL, Dr Andrew Chantry's Lab)
Sequence (O00308 whole entry): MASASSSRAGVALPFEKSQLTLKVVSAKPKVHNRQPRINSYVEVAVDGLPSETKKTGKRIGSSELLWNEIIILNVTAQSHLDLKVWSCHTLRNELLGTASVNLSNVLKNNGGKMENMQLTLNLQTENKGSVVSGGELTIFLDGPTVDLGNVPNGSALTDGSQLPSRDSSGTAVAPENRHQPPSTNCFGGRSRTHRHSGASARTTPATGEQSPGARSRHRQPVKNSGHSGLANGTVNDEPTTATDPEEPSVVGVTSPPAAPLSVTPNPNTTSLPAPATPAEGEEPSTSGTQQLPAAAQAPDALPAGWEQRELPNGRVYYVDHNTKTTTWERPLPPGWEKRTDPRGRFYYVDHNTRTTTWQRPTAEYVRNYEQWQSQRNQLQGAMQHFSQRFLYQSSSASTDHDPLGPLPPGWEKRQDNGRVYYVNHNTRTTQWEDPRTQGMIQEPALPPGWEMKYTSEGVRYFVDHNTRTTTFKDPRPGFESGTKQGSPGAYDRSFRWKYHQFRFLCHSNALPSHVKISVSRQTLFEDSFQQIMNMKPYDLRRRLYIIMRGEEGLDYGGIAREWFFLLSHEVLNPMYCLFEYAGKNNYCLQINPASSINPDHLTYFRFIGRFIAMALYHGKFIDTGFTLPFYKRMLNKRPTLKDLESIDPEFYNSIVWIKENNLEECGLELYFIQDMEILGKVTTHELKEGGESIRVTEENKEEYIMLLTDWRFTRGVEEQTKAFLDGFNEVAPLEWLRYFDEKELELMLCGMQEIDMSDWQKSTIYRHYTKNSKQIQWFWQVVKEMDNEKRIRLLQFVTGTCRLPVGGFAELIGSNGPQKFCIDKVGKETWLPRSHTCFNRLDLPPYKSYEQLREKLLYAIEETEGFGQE
Experiment: WWP2 ELISA autoubiquitination assay
Format: biochemical
Details: 1 mM compound, 1% DMSO; hit threshold less than 50% relative activity
Experimental: Cell lysate containing His-tagged WWP1-L34H or GST-tagged WWP2-FL proteins were incubated on either 96-well Clear Pierce glutathione or nickel-coated plates for 1 h in PBS. […] Quantification was measured by absorbance read at 450 nm, standardised to the 0% and 100% activity controls. […] IC50 non-linear regression curves were calculated in GraphPad v10.2 (Prism). […]
observation.type: relative activity, single-shot autoubiquitination

// query relative activity, single-shot autoubiquitination value for entry CCOC(=O)CNC(=O)CSc1nc2nc(Cl)c(Cl)nc2[nH]1
better single-shot data

# get_value(readout='relative activity, single-shot autoubiquitination', item= O=C(O)CNC(=O)CSc1nc2nc(Cl)c(Cl)nc2[nH]1 )
better single-shot data

====

biological target: WWP2-FL (Homo sapiens, UniProt O00308); construct: full-length WWP2 (WWP2-FL); made in house; host or cells: E. coli BL21-CodonPlus RP (plasmid pGEX2T-WWP2-FL, Dr Andrew Chantry's Lab); experiment: WWP2 ELISA autoubiquitination assay; type: biochemical; details: synthesised compound; WWP2-FL; 1% DMSO; 95% CI range in brackets
pIC50: −log10 of the molar value.
observation.type: pIC50

What value of measured pIC50 is listed for O=C(O)CSc1nc2nc(Cl)c(Cl)nc2[nH]1 [Compound 15] ?
3.18

Param item = N#CCSc1nc2nc(Cl)c(Cl)nc2[nH]1 [Compound 7] ; retrieve measured pIC50.
3.07

Please report the recorded pIC50 for O=C(CSc1nc2nc(Cl)c(Cl)nc2[nH]1)N1CCOCC1 [Compound 9] .
3.21

Which value of pIC50 has been reported for O=C(O)CCSc1nc2nc(Cl)c(Cl)nc2[nH]1 [Compound 13] in the records?
3.22

====

biological target: WWP1-L34H (Homo sapiens); construct: WWP1- 2,3-linker-WW3-WW4-HECT (WWP1-L34H); made in house; host or cells: E. coli BL21-CodonPlus RP (plasmid pET32a-WWP1-L34H, gifted by Dr Wenyu Wen); assay: WWP1 ELISA autoubiquitination assay; type: biochemical; conditions: 1 mM compound, 1% DMSO; hit threshold less than 50% relative activity
observation.type: relative activity, single-shot autoubiquitination

Quick one: relative activity, single-shot autoubiquitination of O=C(O)CNC(=O)CSc1nc2nc(Cl)c(Cl)nc2[nH]1 ?
better single-shot data

// relative activity, single-shot autoubiquitination lookup, key: CCOC(=O)CNC(=O)CSc1nc2nc(Cl)c(Cl)nc2[nH]1
better single-shot data
